ASSAY_REMARKS: Elution rate in aqueous solutions of various pH and physiological saline solution
Format: physicochemical
RUN_CONDITIONS: pH 1.2-3; general description
PARAMETER: elution rate in pH 1.2-3 acidic aqueous solution (summary)

CCC(=O)OC1CC(=O)OC(C)C/C=C/C=C/C(O)C(C)CC(CC=O)C(OC2OC(C)C(OC3CC(C)(O)C(OC(=O)CC)C(C)O3)C(N(C)C)C2O)C1OC (stereo not shown) = more than 95%
CCCC(=O)OC1C(C)OC(OC2C(C)OC(OC3C(CC=O)CC(C)C(O)/C=C/C=C/CC(C)OC(=O)CC(O)C3OC)C(O)C2N(C)C)CC1(C)OC(=O)CC (stereo not shown) = more than 95%
CO[C@@H]1[C@@H](O[C@@H]2O[C@H](C)[C@@H](O[C@H]3C[C@@](C)(O)[C@@H](OC(=O)CC(C)C)[C@H](C)O3)[C@H](N(C)C)[C@H]2O)[C@@H](CC=O)C[C@@H](C)[C@@H](O)/C=C/C=C/C[C@@H](C)OC(=O)C[C@H]1OC(C)=O = more than 95%
CCC(=O)O[C@H]1/C=C/C=C/C[C@@H](C)OC(=O)C[C@@H](OC(C)=O)[C@H](OC)[C@@H](O[C@@H]2O[C@H](C)[C@@H](O[C@H]3C[C@@](C)(O)[C@@H](OC(=O)CC(C)C)[C@H](C)O3)[C@H](N(C)C)[C@H]2O)[C@@H](CC=O)C[C@H]1C = more than 95%

----------
ASSAY_REMARKS: Stability in Japan Pharmacopoeia 1st solution (pH 1.2) at 37° C., with or without stabilizer (TLC densitometry, 232 nm)
Format: physicochemical
RUN_CONDITIONS: 150-400 mg of calcium phosphate, 1st solution
PARAMETER: stability with calcium phosphate (in words)

CCC(=O)O[C@H]1/C=C/C=C/C[C@@H](C)OC(=O)C[C@@H](OC(C)=O)[C@H](OC)[C@@H](O[C@@H]2O[C@H](C)[C@@H](O[C@H]3C[C@@](C)(O)[C@@H](OC(=O)CC(C)C)[C@H](C)O3)[C@H](N(C)C)[C@H]2O)[C@@H](CC=O)C[C@H]1C [9-propionyljosamycin] = extremely enhanced
CCC(=O)OC1CC(=O)OC(C)C/C=C/C=C/C(OC(C)=O)C(C)CC(CC=O)C(OC2OC(C)C(OC3CC(C)(OC(C)=O)C(OC(=O)CC)C(C)O3)C(N(C)C)C2O)C1OC (stereo not shown) [9,3"-diacetylmidecamycin] = extremely enhanced

----------
Reported degraded at 1 h values follow for various compounds
ASSAY_REMARKS: Stability in Japan Pharmacopoeia 1st solution (pH 1.2) at 37° C., with or without stabilizer (TLC densitometry, 232 nm)
Format: physicochemical
RUN_CONDITIONS: jp 1st solution; 1st solution pH 1.2, 37° C., 60 minutes, no stabilizer; read-out: decomposites (balance), 60 minutes
Please state the figure in %; there is no need to write the unit.

CCC(=O)O[C@H]1/C=C/C=C/C[C@@H](C)OC(=O)C[C@@H](OC(C)=O)[C@H](OC)[C@@H](O[C@@H]2O[C@H](C)[C@@H](O[C@H]3C[C@@](C)(O)[C@@H](OC(=O)CC(C)C)[C@H](C)O3)[C@H](N(C)C)[C@H]2O)[C@@H](CC=O)C[C@H]1C = 84.1
CCCC(=O)OC1C(C)OC(OC2C(C)OC(OC3C(CC=O)CC(C)C(O)/C=C/C=C/CC(C)OC(=O)CC(O)C3OC)C(O)C2N(C)C)CC1(C)OC(=O)CC (stereo not drawn) = 41.4

Next item in the queue.
For reference, reported degraded at 1 h for CCC(=O)OC1CC(=O)OC(C)C/C=C/C=C/C(OC(C)=O)C(C)CC(CC=O)C(OC2OC(C)C(OC3CC(C)(OC(C)=O)C(OC(=O)CC)C(C)O3)C(N(C)C)C2O)C1OC (stereo not drawn) stands at 75.5
